IC50 at 24 h for assorted molecules
test: Cytotoxicity against human K562 cells assessed as cell viability after 24 hrs by MTT assay; assay type: toxicity, cell-based

Input: State its IC50 at 24 h: NCCCC[C@H](N)C(=O)N[C@@H](Cc1ccccc1)CN(CC(=O)NCC12CC3CC(CC(C3)C1)C2)C(=O)CC12CC3CC(CC(C3)C1)C2
Output: 83.2 µg/mL

Input: Consider the molecule N=C(N)NCCC[C@H](N)C(=O)N[C@@H](Cc1ccccc1)CN(CC(=O)NCc1cccc2ccccc12)C(=O)c1ccc2ccccc2c1 and give its recorded IC50 at 24 h.
Output: > 100 µg/mL

###

system: Pseudomonas aeruginosa; assay: Antibacterial activity against Pseudomonas aeruginosa ATCC 27853 after 16 to 20 hrs by two fold serial dilution method; format: functional
metric_name: MIC

Examples from the recorded data:
NCCCC[C@H](NC(=O)[C@@H](N)CCCN)C(=O)N[C@@H](Cc1ccccc1)CN(CC(=O)NCC12CC3CC(CC(C3)C1)C2)C(=O)CC12CC3CC(CC(C3)C1)C2 :: 6.25 µg/mL
NCCCC[C@H](NC(=O)[C@@H](N)CCCCN)C(=O)N[C@@H](Cc1ccccc1)CN(CC(=O)NCC12CC3CC(CC(C3)C1)C2)C(=O)CC12CC3CC(CC(C3)C1)C2 :: 6.25 µg/mL
NCCCC[C@H](N)C(=O)N[C@@H](Cc1ccccc1)CN(CC(=O)NCc1cccc2ccccc12)C(=O)CC12CC3CC(CC(C3)C1)C2 :: 6.12 µg/mL
NCCCC[C@@H](CN(CC(=O)NCc1cccc2ccccc12)C(=O)CCCN)NC(=O)c1ccc2ccccc2c1 :: > 50 µg/mL
NCCCC[C@@H](CN(CC(=O)NCc1cccc2ccccc12)C(=O)CC12CC3CC(CC(C3)C1)C2)NC(=O)[C@@H](N)CCCCN :: > 50 µg/mL

Input: Answer with the recorded MIC of NCCCC[C@H](N)C(=O)N[C@@H](Cc1ccccc1)CN(CC(=O)NCc1cccc2ccccc12)C(=O)c1ccc2ccccc2c1 only.
Output: 12.5 µg/mL

Input: Specify reported MIC for the compound shown: N=C(N)NCCC[C@H](N)C(=O)N[C@@H](Cc1ccccc1)CN(CC(=O)NCc1cccc2ccccc12)C(=O)c1ccc2ccccc2c1
Output: 25 µg/mL

Sourced from ChEMBL document CHEMBL3853323
